Entry source: the supplement of paper PMC10627819

Test system: S. pneumoniae D39V
procedure.summary: Bliss interaction score (quartile over a dose matrix) (fitness difference); higher = more antagonism (negative = synergy);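 further: first quartile when negative (synergy) and third quartile when positive (antagonism)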
readout: Bliss interaction score
No unit in the answer, please; the number alone is enough.

Respond only with Bliss interaction score recorded for N#CC(C#N)=NNc1cccc(Cl)c1 [CCCP] + CN[C@@H]1[C@H](O[C@H]2[C@H](O[C@H]3[C@H](O)[C@@H](O)[C@H](N=C(N)N)[C@@H](O)[C@@H]3N=C(N)N)O[C@@H](C)[C@]2(O)C=O)O[C@@H](CO)[C@H](O)[C@H]1O [Streptomycin]
0.0786

Respond only with Bliss interaction score recorded for CN(C)[C@@H]1C(O)=C(C(N)=O)C(=O)[C@@]2(O)C(O)=C3C(=O)c4c(O)ccc(Cl)c4[C@@](C)(O)[C@H]3C[C@@H]12 [Clortetracycline] + CCC[C@@H]1C[C@@H](C(=O)N[C@@H]([C@H]2O[C@H](SC)[C@H](O)[C@@H](O)[C@H]2O)[C@@H](C)O)N(C)C1 [Lincomycin]
0.036

Respond only with Bliss interaction score recorded for CO/N=C(\C(=O)N[C@@H]1C(=O)N2C(C(=O)O)=C(COC(N)=O)CS[C@H]12)c1ccco1 [Cefuroxime] + CCN(CC)CCOC(=O)c1ccc(N)cc1 [Procaine]
-0.0452

Respond only with Bliss interaction score recorded for CC1(C)S[C@@H]2[C@H](NC(=O)Cc3ccccc3)C(=O)N2[C@H]1C(=O)O [PenicillinG] + Oc1cc(Cl)ccc1Oc1ccc(Cl)cc1Cl [Triclosan]
0.0767

----------
System: S. aureus Newman
procedure.summary: Bliss interaction score (quartile over a dose matrix) (fitness difference); higher = more antagonism (negative = synergy)
Each record here notes measured Bliss interaction score.

Solved entries:
- molecule: "N#CC(C#N)=NNc1cccc(Cl)c1 [CCCP] + Cc1onc(-c2ccccc2)c1C(=O)N[C@@H]1C(=O)N2[C@@H]1SC(C)(C)[C@@H]2C(=O)O [Oxacillin]"
  Bliss interaction score: -0.0755
- molecule: "CO/N=C(\\C(=O)N[C@@H]1C(=O)N2C(C(=O)O)=C(COC(N)=O)CS[C@H]12)c1ccco1 [Cefuroxime] + C[n+]1ccc(-c2cc[n+](C)cc2)cc1 [Paraquat]"
  Bliss interaction score: -0.0456
- molecule: "CO/N=C(\\C(=O)N[C@@H]1C(=O)N2C(C(=O)O)=C(COC(C)=O)CS[C@H]12)c1csc(N)n1 [Cefotaxime] + CN[C@@H]1[C@H](O[C@H]2[C@H](O[C@H]3[C@H](O)[C@@H](O)[C@H](N=C(N)N)[C@@H](O)[C@@H]3N=C(N)N)O[C@@H](C)[C@]2(O)C=O)O[C@@H](CO)[C@H](O)[C@H]1O [Streptomycin]"
  Bliss interaction score: -0.0376

Respond only with Bliss interaction score recorded for CN(C)[C@@H]1C(O)=C(C(N)=O)C(=O)[C@@]2(O)C(O)=C3C(=O)c4c(O)ccc(Cl)c4[C@@](C)(O)[C@H]3C[C@@H]12 [Clortetracycline] + CN[C@H](CC(C)C)C(=O)N[C@H]1C(=O)N[C@@H](CC(N)=O)C(=O)N[C@H]2C(=O)N[C@H]3C(=O)N[C@H](C(=O)N[C@H](C(=O)O)c4cc(O)cc(O)c4-c4cc3ccc4O)[C@H](O)c3ccc(c(Cl)c3)Oc3cc2cc(c3O[C@@H]2O[C@H](CO)[C@@H](O)[C@H](O)[C@H]2O[C@H]2C[C@](C)(N)[C@H](O)[C@H](C)O2)Oc2ccc(cc2Cl)[C@H]1O [Vancomycin]
0.0562

Respond only with Bliss interaction score recorded for CC(=O)Oc1ccccc1C(=O)O [Acetylsalicylicacid] + COc1cc(Cc2cnc(N)nc2N)cc(OC)c1OC [Trimethoprim]
0.0981

Respond only with Bliss interaction score recorded for COc1cccc2c1C(=O)c1c(O)c3c(c(O)c1C2=O)C[C@@](O)(C(=O)CO)C[C@@H]3O[C@H]1C[C@H](N)[C@H](O)[C@H](C)O1 [Doxorubicin] + CN(N=O)C(=O)N[C@@H](C=O)[C@@H](O)[C@H](O)[C@H](O)CO [Streptozotocin]
0.11

Respond only with Bliss interaction score recorded for COc1cccc2c1C(=O)c1c(O)c3c(c(O)c1C2=O)C[C@@](O)(C(=O)CO)C[C@@H]3O[C@H]1C[C@H](N)[C@H](O)[C@H](C)O1 [Doxorubicin] + C/C(=C\C(=O)OCCCCCCCCC(=O)O)C[C@@H]1OC[C@H](C[C@@H]2O[C@H]2[C@@H](C)[C@H](C)O)[C@@H](O)[C@H]1O [Pseudomonic acid]
-0.0226

Respond only with Bliss interaction score recorded for CO/N=C(\C(=O)N[C@@H]1C(=O)N2C(C(=O)O)=C(COC(N)=O)CS[C@H]12)c1ccco1 [Cefuroxime] + COc1cc(Cc2cnc(N)nc2N)cc(OC)c1OC [Trimethoprim]
-0.438

----------
Test system: B. subtilis 168
procedure.summary: Bliss interaction score (quartile over a dose matrix) (fitness difference); higher = more antagonism (negative = synergy)
readout: Bliss interaction score
No unit in the answer, please; the number alone is enough.

Solved entries:
- compound: "Cc1ncc([N+](=O)[O-])n1CCO [Metronidazole] + CN1C2=CC=CC=C2N=C3C1=CC=CC3=O [Pyocyanin]"
  reported.measurement: -0.0539
- compound: "C[C@@H]1O[C@@H]1P(=O)(O)O [Fosfomycin] + CN(C)C(=O)C(CCN1CCC(O)(c2ccc(Cl)cc2)CC1)(c1ccccc1)c1ccccc1 [Loperamide]"
  reported.measurement: 0.305
- compound: "Cc1ncc([N+](=O)[O-])n1CCO [Metronidazole] + CCN(CC)CCOC(=O)c1ccc(N)cc1 [Procaine]"
  reported.measurement: -0.0393
- compound: "Cc1ncc([N+](=O)[O-])n1CCO [Metronidazole] + COc1cc(Cc2cnc(N)nc2N)cc(OC)c1OC [Trimethoprim]"
  reported.measurement: 0.11

Consider now this further compound.
Respond only with Bliss interaction score recorded for O=C(O)c1cn(C2CC2)c2cc(N3CCNCC3)c(F)cc2c1=O [Ciprofloxacin] + CN[C@@H]1[C@H](O[C@H]2[C@H](O[C@H]3[C@H](O)[C@@H](O)[C@H](N=C(N)N)[C@@H](O)[C@@H]3N=C(N)N)O[C@@H](C)[C@]2(O)C=O)O[C@@H](CO)[C@H](O)[C@H]1O [Streptomycin]
-0.109

----------
System: S. pneumoniae D39V
procedure.summary: Bliss interaction score (quartile over a dose matrix) (fitness difference); higher = more antagonism (negative = synergy)
readout: Bliss interaction score

Solved entries:
- compound: "CO/N=C(\\C(=O)N[C@@H]1C(=O)N2C(C(=O)O)=C(COC(N)=O)CS[C@H]12)c1ccco1 [Cefuroxime] + CC(=O)O[C@H]1C[C@@]2(C)[C@@H](C[C@@H](O)[C@H]3[C@@]4(C)CC[C@@H](O)[C@@H](C)[C@@H]4CC[C@@]32C)/C1=C(\\CCC=C(C)C)C(=O)O [Fusidic acid]"
  tested.on: "S. pneumoniae D39V"
  Bliss interaction score: 0.0348
- compound: "C[C@H]1c2cccc(O)c2C(=O)C2=C(O)[C@]3(O)C(=O)C(C(N)=O)=C(O)[C@@H](N(C)C)[C@@H]3[C@@H](O)[C@@H]21 [Doxycycline] + CC[C@H]1OC(=O)[C@H](C)[C@@H](O[C@H]2C[C@@](C)(OC)[C@@H](O)[C@H](C)O2)[C@H](C)[C@@H](O[C@@H]2O[C@H](C)C[C@H](N(C)C)[C@H]2O)[C@](C)(O)C[C@@H](C)C(=O)[C@H](C)[C@@H](O)[C@]1(C)O [Erythromycin]"
  tested.on: "S. pneumoniae D39V"
  Bliss interaction score: -0.161

Consider now this further compound.
Respond only with Bliss interaction score recorded for C[C@H]1c2cccc(O)c2C(=O)C2=C(O)[C@]3(O)C(=O)C(C(N)=O)=C(O)[C@@H](N(C)C)[C@@H]3[C@@H](O)[C@@H]21 [Doxycycline] + Oc1cc(Cl)ccc1Oc1ccc(Cl)cc1Cl [Triclosan]
0.0668

----------
System: S. aureus DSM 20231
procedure.summary: Bliss interaction score (quartile over a dose matrix) (fitness difference); higher = more antagonism (negative = synergy)
readout: Bliss interaction score
No unit in the answer, please; the number alone is enough.

Solved entries:
- molecule: "CC1(C)S[C@@H]2[C@H](NC(=O)Cc3ccccc3)C(=O)N2[C@H]1C(=O)O [PenicillinG] + CO[C@H]1/C=C/O[C@@]2(C)Oc3c(C)c(O)c4c(O)c(c(/C=N/N5CCN(C)CC5)c(O)c4c3C2=O)NC(=O)/C(C)=C\\C=C\\[C@H](C)[C@H](O)[C@@H](C)[C@@H](O)[C@@H](C)[C@H](OC(C)=O)[C@@H]1C [Rifampicin]"
  reported.measurement: 0.036
- molecule: "CN(C)[C@@H]1C(O)=C(C(N)=O)C(=O)[C@@]2(O)C(O)=C3C(=O)c4c(O)ccc(Cl)c4[C@@](C)(O)[C@H]3C[C@@H]12 [Clortetracycline] + C/C(=C\\C(=O)OCCCCCCCCC(=O)O)C[C@@H]1OC[C@H](C[C@@H]2O[C@H]2[C@@H](C)[C@H](C)O)[C@@H](O)[C@H]1O [Pseudomonic acid]"
  reported.measurement: 0.0276

Consider now this further molecule.
Respond only with Bliss interaction score recorded for CN(C)c1cc(NC(=O)CNC(C)(C)C)c(O)c2c1C[C@H]1C[C@H]3[C@H](N(C)C)C(O)=C(C(N)=O)C(=O)[C@@]3(O)C(O)=C1C2=O [Tigecycline] + CN[C@H](CC(C)C)C(=O)N[C@H]1C(=O)N[C@@H](CC(N)=O)C(=O)N[C@H]2C(=O)N[C@H]3C(=O)N[C@H](C(=O)N[C@H](C(=O)O)c4cc(O)cc(O)c4-c4cc3ccc4O)[C@H](O)c3ccc(c(Cl)c3)Oc3cc2cc(c3O[C@@H]2O[C@H](CO)[C@@H](O)[C@H](O)[C@H]2O[C@H]2C[C@](C)(N)[C@H](O)[C@H](C)O2)Oc2ccc(cc2Cl)[C@H]1O [Vancomycin]
0.0923
